I'd appreciate it if you could supply protein stability index values for the items below.
B1: FAM164A (parent)
chain: YDPDYIQCPYCQRRFNENAADRHI

Variants of: B1
methodSummary: protein stability index of a GFP-peptide fusion (GPS, HEK-293T) (PSI 1-6); higher = more stable;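 note: lentivirally expressed fusions sorted by FACS into six bins by GFP to DsRed ratio, PSI derived from sequencing read proportions per bin multiplied by bin number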
experimentalParameters: c terminus: a fixed tail appended
Give bare numbers.

// known answers, use as guide
[
  {
    "chain": "YDPDYIQCPYCQRRFNENAACRHI",
    "protein stability index": 4.8
  },
  {
    "chain": "YDPDYIQCPYHQRRFNENAADRHI",
    "protein stability index": 3.69
  }
]

# batch size: 6; output protein stability index per entry
1. YDPDYIQCPYCQRRFNRNAADRHI
2. YDPDYIQLPYCQRRFNENAADRHI
3. YDPYYIQCPYCQRRFNENAADRHI
4. YDPDYIQCPYPQRRFNENAADRHI
5. YDPDYIQCPYCQRRFNENAQDRHI
6. YDPDYHQCPYCQRRFNENAADRHI

[4.89, 3.56, 3.59, 3.65, 3.82, 3.71]

Below are 6 variants. Give each one its protein stability index.
1. YDPDYIQCPYCQRRGNENAADRHI
2. YDPDYIQCPYCQRRDNENAADRHI
3. YDPDYIQCPYCQRRFNENAALRHI
4. YDPDSIQCPYCQRRFNENAADRHI
5. YFPDYIQCPYCQRRFNENAADRHI
6. YDPDYIQCPYCQRCFNENAADRHI

1: 2.83; 2: 3.17; 3: 4.55; 4: 4.37; 5: 3.52; 6: 4.41

Could you tell me protein stability index for each of these variants? They are listed below.
1. YDPDYIQCPYCQRRFNENAADAHI
2. YDPDYIQCPYCQRRFNENAADRPI
3. YDPDYIQCKYCQRRFNENAADRHI
4. YDPDYIQCPYCQRRFAENAADRHI
5. QDPDYIQCPYCQRRFNENAADRHI
6. YDPDYIQCPYCQRRFNENAADRFI

1. 4.49
2. 3.86
3. 2.58
4. 4.63
5. 4.55
6. 3.3

Could I get protein stability index for every one of these entries?
1. YPPDYIQCPYCQRRFNENAADRHI
2. YDPDYIQCPYCQRRFNENAADRHT
3. YDPDYIQCPYCQRYFNENAADRHI
4. YDPDYIQCPYCQRRFNENASDRHI
5. YDPDYIQKPYCQRRFNENAADRHI

[3.64, 4.18, 4.52, 4, 3.54]
